Data origin, for the record: patent US20260297060A1

Assay: Pharmacokinetics in female BALB/c nude mice bearing A375 xenografts, 1 day dosing (PK and PD study): plasma, tumor and brain concentrations, AUC
Assay type: in vivo
Conditions: mouse, brain, po, 0.75 mg/kg, 0.75 mg/kg p.o. BID × 1 day; post 2nd dose; 10 h; read-out: Mean Concentration in Brain ± SEM

compound: CCN(C)S(=O)(=O)Nc1ccc(F)c(Oc2ccc3ncn(C4CC5(CCN(C6CC7(C6)CN(c6cc8c(cc6F)c(N6CCC(=O)NC6=O)nn8C)C7)CC5)C4)c(=O)c3c2)c1C#N (stereo not shown)
concentration at 10 h: 6.61 ng/g

---

Assay: Pharmacokinetics in female BALB/c nude mice bearing A375 xenografts, 1 day dosing (PK and PD study): plasma, tumor and brain concentrations, AUC
Type: in vivo
Conditions: mouse, plasma, po, 1 mg/kg, 1 mg/kg p.o. TID × 1 day; post 1st dose; 8 h; read-out: Mean Concentration in Plasma ± SEM
value.kind: concentration at 8 h

compound: CCN(C)S(=O)(=O)Nc1ccc(F)c(Oc2ccc3ncn(C4CC5(CCN(C6CC7(C6)CN(c6cc8c(cc6F)c(N6CCC(=O)NC6=O)nn8C)C7)CC5)C4)c(=O)c3c2)c1C#N (stereo not shown)
val: 0.242 µg/mL

---

Test: Pharmacokinetics in female BALB/c nude mice bearing A375 xenografts, 1 day dosing (PK and PD study): plasma, tumor and brain concentrations, AUC
Type: in vivo
Settings: mouse, brain, po, 1.5 mg/kg, Compound 141; 1.5 mg/kg p.o. BID × 1 day; post 2nd dose; 10 h; read-out: Mean Concentration in Brain ± SEM
value.kind: concentration at 10 h (ng/g)

compound: CCN(C)S(=O)(=O)Nc1ccc(F)c(Oc2ccc3ncn(C4CC5(CCN(C6CC7(C6)CN(c6cc8c(cc6F)c(N6CCC(=O)NC6=O)nn8C)C7)CC5)C4)c(=O)c3c2)c1C#N (stereo not shown) [Compound 141]
value.kind: concentration at 10 h
val: 3.51

---

Test: Pharmacokinetics in female BALB/c nude mice bearing A375 xenografts, 1 day dosing (PK and PD study): plasma, tumor and brain concentrations, AUC
Type: in vivo
Details: mouse, plasma, po, 5 mg/kg, 5 mg/kg p.o. BID × 1 day; post 2nd dose; 0.5 h; read-out: Mean Concentration in Plasma ± SEM

compound: CCN(C)S(=O)(=O)Nc1ccc(F)c(Oc2ccc3ncn(C4CC5(CCN(C6CC7(C6)CN(c6cc8c(cc6F)c(N6CCC(=O)NC6=O)nn8C)C7)CC5)C4)c(=O)c3c2)c1C#N (stereo not shown)
concentration at 0.5 h (ng/mL): 3160

---

Assay: Pharmacokinetics in female BALB/c nude mice bearing A375 xenografts, 1 day dosing (PK and PD study): plasma, tumor and brain concentrations, AUC
Type: in vivo
Conditions: mouse, plasma, po, 1 mg/kg, 1 mg/kg p.o. TID × 1 day; post 3rd dose; 4 h; read-out: Mean Concentration in Plasma ± SEM
Source text: The concentrations of Dabrafenib, Compound 26 and Compound 141 in the treatment of female BALB/c nude mice bearing A375 xenografts are shown in Table 62-Table 72 and FIG. 52-FIG. 73.

molecule: CCN(C)S(=O)(=O)Nc1ccc(F)c(Oc2ccc3ncn(C4CC5(CCN(C6CC7(C6)CN(c6cc8c(cc6F)c(N6CCC(=O)NC6=O)nn8C)C7)CC5)C4)c(=O)c3c2)c1C#N (stereo not shown)
concentration at 4 h [ng/mL]: 563
